Some binders, each annotated with its measured binding signal.
# assayedSystem: T1, RBFOX1 RRM RbFoxmut (Fox-RRM*) (Homo sapiens, UniProt Q9NWB1 109-208, R118D;E147R;N151S;E152T)
# T1 sequence: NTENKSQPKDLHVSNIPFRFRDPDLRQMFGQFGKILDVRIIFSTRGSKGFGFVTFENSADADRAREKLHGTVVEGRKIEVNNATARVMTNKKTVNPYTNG
# protocolText: EMSA; HiTS-Eq, 1 nM pool, 10 min; buffer printed only for the single-RNA assays: 10 mM Tris pH 7.5, 150 mM NaCl, 3.4 mM EDTA, 0.001% NP-40, 30 C
# settings: tags: His6 N-terminal (pET28a); label: 5' 32P
In all, about 16,000 sequences were measured (“ka relative to ugcaugu”: median about 0.096, highest 2% from about 0.35 on). The full list was thinned out, with the highest values kept by preference.

Past entries and their recorded results:
CACCGUC (DNA:RNA) RNA: GGGAGACCGGAAUUCAGAUUGUCCCACCGUCUUAAAUCCCGUCGUAGCCACCA DNA 1: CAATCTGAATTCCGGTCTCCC DNA 2: TGGTGGCTACGACGGGATT
0.0639 KA relative to UGCAUGU
UUAGUGG (DNA:RNA) RNA: GGGAGACCGGAAUUCAGAUUGUCCUUAGUGGUUAAAUCCCGUCGUAGCCACCA DNA 1: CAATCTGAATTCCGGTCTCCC DNA 2: TGGTGGCTACGACGGGATT
0.0929 KA relative to UGCAUGU
GGUCCGU (DNA:RNA) RNA: GGGAGACCGGAAUUCAGAUUGUCCGGUCCGUUUAAAUCCCGUCGUAGCCACCA DNA 1: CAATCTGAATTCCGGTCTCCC DNA 2: TGGTGGCTACGACGGGATT
0.136 KA relative to UGCAUGU
UCCGUCA (DNA:RNA) RNA: GGGAGACCGGAAUUCAGAUUGUCCUCCGUCAUUAAAUCCCGUCGUAGCCACCA DNA 1: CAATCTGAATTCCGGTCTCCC DNA 2: TGGTGGCTACGACGGGATT
0.111 KA relative to UGCAUGU
CCACGAC (DNA:RNA) RNA: GGGAGACCGGAAUUCAGAUUGUCCCCACGACUUAAAUCCCGUCGUAGCCACCA DNA 1: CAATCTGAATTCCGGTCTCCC DNA 2: TGGTGGCTACGACGGGATT
0.0943 KA relative to UGCAUGU

Reported binding signal, binder AUUCAGA (DNA:RNA) RNA: GGGAGACCGGAAUUCAGAUUGUCCAUUCAGAUUAAAUCCCGUCGUAGCCACCA DNA 1: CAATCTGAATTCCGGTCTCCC DNA 2: TGGTGGCTACGACGGGATT : ____
0.0812 KA relative to UGCAUGU
